assay: toxicity determined by survival in tumor-bearing mice; assay type: in vivo; settings: mouse, in vivo, 30 mg/kg; read-out: toxicity induced deaths
Metric: mortality (%)
Value expressed in %; do not type the unit.

Q: Answer with reported mortality of `COc1cccc2c1C(=O)c1c(O)c3c(c(O)c1C2=O)C[C@@](O)(C(C)=O)C[C@@H]3O[C@H]1C[C@H](N)[C@H](O)[C@H](C)O1`
Ans: 100
